- experimentDescription: Drug metabolism in Wistar rat plasma assessed as parent compound remaining at 115 to 163 MBq, iv after 5 mins
- Type: ADME, organism-based
- studyConditions: read-out: Stability
recordedMetric: remaining at 5 min (%)

- structureSmiles: "CCOCCn1cc(C(=O)NC23CC4CC(CC(C4)C2)C3)c(=O)c2cccc(O[11CH3])c21"
  outputUnit: "%"
  testResult: 72
